target: furin, P09958; test: furin cleavage Z-score vs untreated control; higher = more cleavage, active = 3.5 or more, inactive = 1 or less, 8 variable residues between constant flanks; settings: 30 min;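 also: purified furin at 1:10 enzyme:substrate in 50 mM HEPES pH 7.5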
Sequence (P09958 whole entry): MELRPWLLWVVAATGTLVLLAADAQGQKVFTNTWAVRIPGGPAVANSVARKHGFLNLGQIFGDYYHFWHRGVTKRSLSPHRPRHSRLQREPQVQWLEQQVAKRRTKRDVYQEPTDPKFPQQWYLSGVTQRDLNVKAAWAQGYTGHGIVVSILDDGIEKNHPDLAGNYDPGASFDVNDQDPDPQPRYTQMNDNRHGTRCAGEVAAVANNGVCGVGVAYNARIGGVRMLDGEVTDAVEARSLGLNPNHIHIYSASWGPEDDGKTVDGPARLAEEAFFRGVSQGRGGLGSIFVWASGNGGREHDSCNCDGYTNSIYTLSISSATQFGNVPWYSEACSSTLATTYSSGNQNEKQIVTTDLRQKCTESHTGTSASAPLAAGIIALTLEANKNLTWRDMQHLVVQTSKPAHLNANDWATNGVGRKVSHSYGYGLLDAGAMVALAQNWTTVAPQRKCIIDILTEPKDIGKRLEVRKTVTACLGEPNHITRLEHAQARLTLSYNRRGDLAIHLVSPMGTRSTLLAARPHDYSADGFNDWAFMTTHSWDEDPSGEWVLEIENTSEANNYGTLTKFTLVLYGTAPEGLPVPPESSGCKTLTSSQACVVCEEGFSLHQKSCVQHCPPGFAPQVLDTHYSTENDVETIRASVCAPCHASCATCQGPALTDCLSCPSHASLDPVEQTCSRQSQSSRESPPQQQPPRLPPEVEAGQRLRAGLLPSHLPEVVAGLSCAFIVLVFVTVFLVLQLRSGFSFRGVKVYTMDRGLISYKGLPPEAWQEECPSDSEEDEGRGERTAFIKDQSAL
This is one part of the list. No count for the full screen is at hand.
Labels: 1 = active, 0 = inactive

INSERT INTO assay_data (construct_sequence, category) VALUES
  ('CATYVYNHLTAGNASASA [HC634]', 0),
  ('CAPTPLLYRLAGNASASA [HC971]', 0),
  ('CAPSRRTRRLAGNASASA [FS-1555]', 1),
  ('CATCSRHKRRAGNASASA [FS-96]', 1),
  ('CAPSRRQQRAAGNASASA [FS-1554]', 1),
  ('CAVTQLLRRLAGNASASA [HC1137]', 0),
  ('CASYFRKKRSAGNASASA [FS-1288]', 1),
  ('CAEHVRKLRSAGNASASA [FS-990]', 1),
  ('CARGKRHLQGAGNASASA [FS-2671]', 1),
  ('CARGKRSLDGAGNASASA [FS-2018]', 1),
  ('CARSFRSGDGAGNASASA [FS-2086]', 0),
  ('CAINFRDKRSAGNASASA [FS-667]', 1),
  ('CATEKRKKRSAGNASASA [FS-879]', 1);
